The reported measurements were obtained from the supplement of paper PMC9112550.

Tested on: Escherichia coli TOP10
Experiment: shrunken log2 fold change of peptide-encoding DNA abundance (4.5 h post-induction vs induction); higher = less antimicrobial activity (less host growth inhibition)
Conditions: time post-induction: 4.5 h; library: site-saturation at positions 5, 18, 19, 20
endpoint.label: shrunken log2 fold change
The reply should be a number, written without any unit.

Some sequences with recorded shrunken log2 fold change:
RRIRHRPPRLPRPRPRPRRYPRP | 0.0129
RRIRTRPPRLPRPRPRPKNLPRP | -0.143
RRIRLRPPRLPRPRPRPAKCPRP | -0.0859
RRIRLRPPRLPRPRPRPIYWPRP | -0.0187
RRIRRRPPRLPRPRPRPHGPPRP | 0.267
RRIRDRPPRLPRPRPRPCNEPRP | -0.0633
RRIRTRPPRLPRPRPRPRMFPRP | -0.0163
RRIRLRPPRLPRPRPRPTSKPRP | -0.253
RRIRMRPPRLPRPRPRPTMYPRP | 0.187
RRIRQRPPRLPRPRPRPWPTPRP | 0.00213

Field request: shrunken log2 fold change | item: RRIRQRPPRLPRPRPRPLCMPRP
-0.37

Quick check: shrunken log2 fold change of RRIRDRPPRLPRPRPRPYSNPRP ?
-0.045

Any idea what shrunken log2 fold change was measured for RRIRCRPPRLPRPRPRPWGRPRP ?
-0.118

Consider the sequence RRIRWRPPRLPRPRPRPMRVPRP and give its measured shrunken log2 fold change.
1.03

====

The following sequences are listed with their measured shrunken log2 fold change values.
Test system: Escherichia coli TOP10
Assay: shrunken log2 fold change of peptide-encoding DNA abundance (4.5 h post-induction vs induction); higher = less antimicrobial activity (less host growth inhibition)
Conditions: time post-induction: 4.5 h; library: site-saturation at positions 5, 18, 19, 20
Please reply with the number alone, leaving off any unit.

Example entries begin here.
RRIRDRPPRLPRPRPRPDLWPRP | -0.0295
RRIRFRPPRLPRPRPRPADEPRP | 0.173
RRIRFRPPRLPRPRPRPETYPRP | -0.0354
RRIRGRPPRLPRPRPRPEWMPRP | 0.933
RRIRCRPPRLPRPRPRPQPKPRP | 0.273

// query shrunken log2 fold change value for entry RRIRWRPPRLPRPRPRPWVKPRP
-0.00207

Entry RRIRMRPPRLPRPRPRPLQPPRP has what shrunken log2 fold change?
0.737

Name the reported shrunken log2 fold change value associated with the sequence RRIRLRPPRLPRPRPRPCCDPRP
-0.139

Which measured shrunken log2 fold change value corresponds to RRIRERPPRLPRPRPRPCVTPRP ?
-0.322

What measured shrunken log2 fold change goes with RRIRSRPPRLPRPRPRPCHNPRP ?
-0.364

Need shrunken log2 fold change of RRIRARPPRLPRPRPRPHIEPRP , thanks.
-0.0716

Can you share its shrunken log2 fold change? I mean this sequence: RRIRNRPPRLPRPRPRPDQWPRP
0.0039

Record request: shrunken log2 fold change value, item RRIRQRPPRLPRPRPRPPMMPRP
0.154

Given the sequence RRIRKRPPRLPRPRPRPHQYPRP , what is its reported shrunken log2 fold change?
-0.293

// shrunken log2 fold change lookup, key: RRIRARPPRLPRPRPRPQRFPRP
0.0296

Quick one: shrunken log2 fold change of RRIRDRPPRLPRPRPRPPRNPRP ?
0.27

Field request: shrunken log2 fold change | item: RRIRMRPPRLPRPRPRPQHCPRP
-0.458

Fill blank: measured shrunken log2 fold change of the sequence RRIRTRPPRLPRPRPRPCILPRP is ____.
-0.831

Fill in the blank: the reported shrunken log2 fold change of RRIRMRPPRLPRPRPRPVTLPRP is ____.
-0.393

What does the data say about its shrunken log2 fold change? Entry: RRIRERPPRLPRPRPRPHKKPRP
0.0621

Which shrunken log2 fold change reading was recorded for the sequence RRIRDRPPRLPRPRPRPPQCPRP ?
0.243

====

Test system: Escherichia coli TOP10
Experiment: shrunken log2 fold change of peptide-encoding DNA abundance (4.5 h post-induction vs induction); higher = less antimicrobial activity (less host growth inhibition)
Conditions: time post-induction: 4.5 h; library: site-saturation at positions 5, 18, 19, 20
endpoint.label: shrunken log2 fold change
Number only, please.

Below, 5 sequences whose answers are already recorded.
RRIRTRPPRLPRPRPRPWFWPRP | 0.0569
RRIRRRPPRLPRPRPRPVYYPRP | -0.223
RRIRKRPPRLPRPRPRPPGYPRP | 0.176
RRIRQRPPRLPRPRPRPIYRPRP | -0.0223
RRIRIRPPRLPRPRPRPFYYPRP | -0.667

I'd like to know its shrunken log2 fold change. The sequence in question is RRIRQRPPRLPRPRPRPFMNPRP
-0.148

Which shrunken log2 fold change is listed for RRIRYRPPRLPRPRPRPDMAPRP ?
-0.255

Give its shrunken log2 fold change value. Item: RRIRDRPPRLPRPRPRPCDNPRP
-0.283

Any idea what its shrunken log2 fold change is? The sequence is RRIRGRPPRLPRPRPRPRLDPRP
0.692

Reported shrunken log2 fold change for RRIRARPPRLPRPRPRPEQKPRP : what is it?
1.29

I have this sequence here, RRIRCRPPRLPRPRPRPPVWPRP , and I need its recorded shrunken log2 fold change.
0.129

Consider the sequence RRIRNRPPRLPRPRPRPDQSPRP and give its measured shrunken log2 fold change.
0.00307

If you can, please state the reported shrunken log2 fold change value of RRIRARPPRLPRPRPRPWEPPRP .
0.18

Dear colleague, I am looking for the recorded shrunken log2 fold change of the following sequence: RRIRNRPPRLPRPRPRPTCFPRP
0.0784

Could you tell me which shrunken log2 fold change is on file for RRIRSRPPRLPRPRPRPIKTPRP ?
0.000501

====

Tested on: Escherichia coli TOP10
Test: shrunken log2 fold change of peptide-encoding DNA abundance (4.5 h post-induction vs induction); higher = less antimicrobial activity (less host growth inhibition)
Settings: time post-induction: 4.5 h; library: site-saturation at positions 5, 18, 19, 20
Lab note: anything with shrunken log2 fold change at or over 0.04 counts as MET; the rest go in NOT MET.

Previously resolved entries follow.
RRIRIRPPRLPRPRPRPANSPRP | NOT MET
RRIRRRPPRLPRPRPRPLKPPRP | MET
RRIRDRPPRLPRPRPRPSFQPRP | NOT MET
RRIRERPPRLPRPRPRPQPNPRP | NOT MET
RRIRCRPPRLPRPRPRPLVHPRP | NOT MET
RRIRDRPPRLPRPRPRPAWTPRP | NOT MET
RRIRPRPPRLPRPRPRPMCYPRP | NOT MET
RRIRNRPPRLPRPRPRPSMMPRP | NOT MET
RRIRARPPRLPRPRPRPLAKPRP | MET
RRIRYRPPRLPRPRPRPNYYPRP | NOT MET

shrunken log2 fold change >= 0.04 for RRIRFRPPRLPRPRPRPNDWPRP ?
NOT MET

Dear colleague, could you confirm whether RRIRTRPPRLPRPRPRPHWWPRP has shrunken log2 fold change at or above 0.04?
MET

API: above_or_equal(metric=shrunken log2 fold change, cutoff=0.04) for item RRIRVRPPRLPRPRPRPRHLPRP
NOT MET

For this sequence, is measured shrunken log2 fold change 0.04 or higher? RRIRQRPPRLPRPRPRPFTCPRP
NOT MET

Dear colleague, could you confirm whether RRIRNRPPRLPRPRPRPLYSPRP has shrunken log2 fold change at or above 0.04?
NOT MET

Please tell me: is the sequence RRIRHRPPRLPRPRPRPMKPPRP at or over 0.04 in terms of shrunken log2 fold change?
NOT MET

Given the entry RRIRSRPPRLPRPRPRPHIHPRP , answer whether its shrunken log2 fold change meets or surpasses 0.04.
MET

Is reported shrunken log2 fold change greater than or equal to 0.04 here: RRIRERPPRLPRPRPRPPKDPRP
NOT MET

====

Tested on: Escherichia coli TOP10;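 further: peptides expressed intracellularly from a pBAD plasmid library in pooled LB shake-flask culture, induced with 0.3% L-arabinose, DNA abundance read by NGS, three biological replicates, DESeq2 with apeglm shrinkage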
Test: shrunken log2 fold change of peptide-encoding DNA abundance (4.5 h post-induction vs induction); higher = less antimicrobial activity (less host growth inhibition)
Details: time post-induction: 4.5 h; library: site-saturation at positions 5, 18, 19, 20
# if value of shrunken log2 fold change reaches -0.1, tag 1 (yes); if it stays below, tag 0 (no)

As a guide, the following entries are already answered.
RRIRRRPPRLPRPRPRPEGEPRP | 1 (yes)
RRIRDRPPRLPRPRPRPDIYPRP | 1 (yes)
RRIRCRPPRLPRPRPRPNPKPRP | 1 (yes)
RRIRLRPPRLPRPRPRPVIHPRP | 0 (no)
RRIRLRPPRLPRPRPRPMYHPRP | 0 (no)

We next turn to a different sequence, shown below.
Please tell me: is the sequence RRIRFRPPRLPRPRPRPGRWPRP at or over -0.1 in terms of shrunken log2 fold change?
1 (yes)
